The origin of these recorded values is ChEMBL document CHEMBL5518219.

- PROCEDURE TEXT: Oral bioavailability in mouse at 1 mg/kg
- Assay type: ADME, organism-based
- APPLIED CONDITIONS: in vivo
ENDPOINT LABEL: bioavailability (%)

TEST SMILES | RECORDED MEASUREMENT
Cn1cc2cc(-c3cc4[nH]nc(C5CC5)c4n(-c4ccc(OC(F)F)cc4)c3=O)ccc2n1 | 100

###

- PROCEDURE TEXT: Solubility in FaSSIF at pH 6.5
- Format: ADME

TEST SMILES | ENDPOINT UNIT | solubility
Cn1cc2cc(-c3cc4[nH]nc(C5CC5)c4n(-c4ccc(OC(F)F)cc4)c3=O)ccc2n1 | µM | 3.3

###

- PROCEDURE TEXT: Apparent permeability in human Caco-2 cells at 10 uM
- Assay type: ADME, cell-based
ENDPOINT LABEL: Papp at 10 µM (×10⁻⁶ cm/s)

TEST SMILES | ENDPOINT UNIT | RECORDED MEASUREMENT
Cn1cc2cc(-c3cc4[nH]nc(C5CC5)c4n(-c4ccc(OC(F)F)cc4)c3=O)ccc2n1 | ×10⁻⁶ cm/s | 9.4

###

- PROCEDURE TEXT: Metabolic stability in rat hepatocytes assessed as intrinsic clearance measured per 10^6 cells
- Assay type: ADME, cell-based, Hepatocyte
If the reported hepatocyte CLint equals or exceeds 5 µL/min/1e6 cells, assign TRUE. If not, assign FALSE.

TEST SMILES | ASSIGNED CATEGORY
CNc1ccc(-n2c(=O)c(-c3ccc4nn(C)cc4c3)cc3[nH]nc(C4CC4)c32)cn1 | FALSE
Cc1ccc(-n2c(=O)c(-c3ccc4nn(C)cc4c3)cc3[nH]nc(C4CC4)c32)cc1 | TRUE
COc1ccc(-c2cc3[nH]nc(C4CC4)c3n(-c3ccc(OC(F)F)cc3)c2=O)cn1 | FALSE
COc1ccc(-c2nccc3[nH]nc(C4CC4)c23)cc1 | TRUE
Cn1nnc2ccc(-c3cc4[nH]nc(C5CC5)c4n(-c4ccc(OC(F)F)cc4)c3=O)cc21 | FALSE
COc1ccc(-c2cc3[nH]nc(C4CC4)c3n(-c3ccc(OC(F)F)cc3)c2=O)cc1 | TRUE
CCc1ccc(-n2c(=O)c(-c3ccc4nn(C)cc4c3)cc3[nH]nc(C4CC4)c32)cn1 | TRUE

###

- PROCEDURE TEXT: Plasma protein binding in human assessed as free fraction by equilibrium dialysis
- Format: ADME, cell-free

TEST SMILES | fraction unbound
Cn1cc2cc(-c3cc4[nH]nc(C5CC5)c4n(-c4ccc(OC(F)F)cc4)c3=O)ccc2n1 | 0.032

###

Recorded logD by entry
- PROCEDURE TEXT: Lipophilicity, logD of compound at pH 7.4 by shake flask method
- Type: physicochemical
- APPLIED CONDITIONS: buffer

TEST SMILES | MODIFIER SIGN | logD
O=c1c(-c2ccccc2)cc2[nH]nc(C3CC3)c2n1-c1ccc(OC(F)F)cc1 | = | 4
Cn1cc2ccc(-c3cc4[nH]nc(C5CC5)c4n(-c4ccc(OC(F)F)cc4)c3=O)cc2n1 | = | 3.4
COc1ccc(-c2cc3[nH]nc(C4CC4)c3n(-c3ccc(OC(F)F)cc3)c2=O)nc1 | = | 3.4
Cn1cc2cc(-c3cc4[nH]nc(C5CC5)c4n(-c4ccc(OC(F)F)nc4)c3=O)ccc2n1 | = | 3
CCc1ccc(-n2c(=O)c(-c3ccc4nn(C)cc4c3)cc3[nH]nc(C4CC4)c32)cn1 | = | 2.4
Cc1nc2ccc(-c3cc4[nH]nc(C5CC5)c4n(-c4ccc(OC(F)F)cc4)c3=O)cc2n1C | = | 3.5
Cc1n[nH]c2cc(-c3ccc4nn(C)cc4c3)c(=O)n(-c3ccc(OC(F)F)cc3)c12 | = | 3
Cc1ccc(-n2c(=O)c(-c3ccc4nn(C)cc4c3)cc3[nH]nc(C4CC4)c32)cc1 | = | 3.3
Cn1cc(-c2cc3[nH]nc(C4CC4)c3n(-c3ccc(OC(F)F)cc3)c2=O)ccc1=O | = | 2
Cn1cc2cc(-c3cc4[nH]nc([C@@H]5CCOC5)c4n(-c4ccc(OC(F)F)cc4)c3=O)ccc2n1 | = | 2.5
COc1ccc(-c2cc3[nH]nc(C4CC4)c3c(-c3ccc(OC(F)F)cc3)n2)cc1 | > | 4.5
COc1ccc(-c2cc3[nH]nc(C4CC4)c3n(-c3ccc(OC(F)F)cc3)c2=O)cn1 | = | 3.5
Cn1cc2cc(-c3cc4[nH]nc(C5CC5)c4n(-c4ccc(OC(F)F)cn4)c3=O)ccc2n1 | = | 2.5
Cc1ccc(-n2c(=O)c(-c3ccc4nn(C)cc4c3)cc3[nH]nc(C4CC4)c32)cn1 | = | 2.2
CNc1ccc(-n2c(=O)c(-c3ccc4nn(C)cc4c3)cc3[nH]nc(C4CC4)c32)cn1 | = | 2.3
COc1ccc(-c2cc3[nH]nc(C4CC4)c3n(-c3ccc(OC(F)F)cc3)c2=O)cc1 | = | 4
N#Cc1cc2[nH]nc(C3CC3)c2c(-c2ccc(OC(F)F)cc2)n1 | = | 3.9
Cn1cc2cc(-c3cc4[nH]nc(C5CC5)c4n(-c4ccc(Cl)cc4)c3=O)ccc2n1 | = | 3.4
Cn1cc2cc(-c3cc4[nH]nc(C5CC5)c4n(-c4ccc(CCO)cc4)c3=O)ccc2n1 | = | 2.3
CCc1n[nH]c2cc(-c3ccc4nn(C)cc4c3)c(=O)n(-c3ccc(OC(F)F)cc3)c12 | = | 3.1
Cn1nnc2ccc(-c3cc4[nH]nc(C5CC5)c4n(-c4ccc(OC(F)F)cc4)c3=O)cc21 | = | 3.1
C[C@@H](O)c1ccc(-n2c(=O)c(-c3ccc4nn(C)cc4c3)cc3[nH]nc(C4CC4)c32)cc1 | = | 2.4
COc1ccc(-c2c3c(C4CC4)n[nH]c3cc[n+]2[O-])cc1 | = | 1.3
Cn1cc2cc(-c3cc4[nH]nc(C5CC5)c4n(-c4ccc(OC(F)F)cc4)c3=O)ccc2n1 | = | 3.4
O=c1ccc2[nH]nc(C3CC3)c2n1-c1ccc(OC(F)F)cc1 | = | 2.1
Cc1ncc(-n2c(=O)c(-c3ccc4nn(C)cc4c3)cc3[nH]nc(C4CC4)c32)cn1 | = | 1.6
FC(F)Oc1ccc(-c2nccc3[nH]nc(C4CC4)c23)cc1 | = | 3.8
COc1ccc(-c2nccc3[nH]nc(C4CC4)c23)cc1 | = | 3.3
O=c1c(-c2ccc(O)cc2)cc2[nH]nc(C3CC3)c2n1-c1ccc(OC(F)F)cc1 | = | 3.4
[O-][n+]1ccc2[nH]nc(C3CC3)c2c1-c1ccc(OC(F)F)cc1 | = | 1.6
COc1ccc(-n2c(=O)c(-c3ccc4nn(C)cc4c3)cc3[nH]nc(C4CC4)c32)cc1 | = | 2.8
Cn1cc2cc(-c3cc4[nH]nc(C5CC5)c4n(-c4ccc(CO)cc4)c3=O)ccc2n1 | = | 2.2
Cc1ccc(-n2c(=O)c(-c3ccc4nn(C)cc4c3)cc3[nH]nc(C4CC4)c32)nc1 | = | 2.2
